# procedureText: Cytotoxicity against leukemia CCRF-CEM
# Type: cell-based
# protocolConditions: human, CCRF-CEM leukemia cells
quantityName: GI50 (nM)
API: value field is a number in nM; no unit string.

Measured GI50 of "O=c1oc2ccc(NCc3cc(O)ccc3O)cc2c(=O)n1CCc1ccccc1" : 1300

###

# targetOrTestSystem: Tubulin (Bos taurus)
# procedureText: Inhibition of tubulin polymerization at concentration 10 uM
quantityName: IC50 (µM)
API: value field is a number in µM; no unit string.

Measured IC50 of "COc1ccc(NCc2cc(O)ccc2O)c2c1C(=O)N(CCc1ccccc1)C2" : 9.5

###

# targetOrTestSystem: Tubulin (Bos taurus, UniProt Q6B856+Q862L2+Q862F3)
# procedureText: Inhibition of tubulin polymerization at concentration 10 uM
# Type: functional
just bin them by IC50: bin 1 = under 4 µM, bin 2 = from 4 µM up to 7 µM, bin 3 = 7 µM and over

Worked examples follow.
CCCCCCn1c(=O)oc2ccc(NCc3cc(O)ccc3O)cc2c1=O ... bin 2
COc1ccc(NCc2cc(O)ccc2O)c2c1C(=O)N(CCc1ccc(F)cc1)C2 ... bin 2
O=c1oc2ccc(NCc3cc(O)ccc3O)cc2c(=O)n1CCc1ccccc1 ... bin 3
O=C(NCCc1ccccc1)c1cc(NCc2cc(O)ccc2O)ccc1O ... bin 1

Lookup: Which bin, given its IC50, does "O=C1c2c(O)ccc(NCc3cc(O)ccc3O)c2CN1CCc1ccccc1" occupy?
Found: bin 3

Lookup: Which bin, given its IC50, does "Oc1ccc(O)c(CNc2ccc(O)c(/C=C\CCc3ccccc3)c2)c1" occupy?
Found: bin 1

Lookup: Which bin, given its IC50, does "CCCCCCNC(=O)c1cc(NCc2cc(O)ccc2O)ccc1O" occupy?
Found: bin 1

Lookup: Which bin, given its IC50, does "O=C1c2c(O)ccc(NCc3cc(O)ccc3O)c2CN1CCc1ccc(F)cc1" occupy?
Found: bin 2

# credit: ChEMBL document CHEMBL1135632
